# experimentalTarget: AgBzz1-D1
# measurementProtocol: SPOT peptide array binding signal intensity (averaged, normalized) (arbitrary units (background-subtracted, floor 0; scale differs between SH3 domains)); higher = stronger binding of the SH3 domain to the peptide
Parameter: SPOT peptide array binding signal intensity. Scope: all listed entries.
Form: value (number only, do not type unit).

As a guide, the following entries are already answered.
NFFRKKLGIPRKLKR : 20
VGFRLALKFPSRITG : 231
TYNRTAFQIPGDQSI : 60

Give me measured SPOT peptide array binding signal intensity, please, for this binder: `MKRSRPSRSIPYTTP`
53

Give me measured SPOT peptide array binding signal intensity, please, for this binder: `RKQRSIPLSPIVPES`
15.5

Give me measured SPOT peptide array binding signal intensity, please, for this binder: `ERPKRRAPPPVPKKP`
1350

Give me measured SPOT peptide array binding signal intensity, please, for this binder: `NFLRLLIGLPSQNEL`
17.5

Give me measured SPOT peptide array binding signal intensity, please, for this binder: `PAPPPPPRASRPTPN`
57

Give me measured SPOT peptide array binding signal intensity, please, for this binder: `TTNRGPPPLPPRANV`
385

Give me measured SPOT peptide array binding signal intensity, please, for this binder: `HKVLRPFLLRRLKKD`
1.5

Give me measured SPOT peptide array binding signal intensity, please, for this binder: `WRPRIVPILPYITRL`
11

Give me measured SPOT peptide array binding signal intensity, please, for this binder: `AERNYAPRLPRRETS`
77

Give me measured SPOT peptide array binding signal intensity, please, for this binder: `VPVAPPPPPASLGQS`
0.5

Give me measured SPOT peptide array binding signal intensity, please, for this binder: `RKRRTHLRLPLIRSN`
2

Give me measured SPOT peptide array binding signal intensity, please, for this binder: `RTRRRPPPPPIPSTQ`
3430

Reference source: the supplement of paper PMC4466140
